Molecular target: UniProt P28335
Sequence (P28335 whole entry): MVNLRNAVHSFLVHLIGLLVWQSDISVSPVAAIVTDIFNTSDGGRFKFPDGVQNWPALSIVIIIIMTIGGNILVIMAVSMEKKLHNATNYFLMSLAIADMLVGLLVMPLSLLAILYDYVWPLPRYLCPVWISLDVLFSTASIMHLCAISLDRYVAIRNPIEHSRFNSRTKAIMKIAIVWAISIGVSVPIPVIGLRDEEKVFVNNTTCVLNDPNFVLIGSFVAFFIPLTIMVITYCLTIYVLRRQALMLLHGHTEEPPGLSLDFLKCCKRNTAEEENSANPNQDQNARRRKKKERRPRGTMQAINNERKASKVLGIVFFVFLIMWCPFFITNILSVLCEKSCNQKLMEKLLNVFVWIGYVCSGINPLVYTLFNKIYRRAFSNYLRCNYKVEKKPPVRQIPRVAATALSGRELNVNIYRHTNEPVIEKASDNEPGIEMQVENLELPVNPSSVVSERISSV
measurementName: log10 Ki (log10 of the value in nM)
All values: log10 Ki [nM].

Example results:
* CN1CCN2c3c(cccc31)[C@@H]1CCN(CCCC(=O)c3ccc(F)cc3)CC[C@@H]12 | 2.70
* O=C(CCCN1CC[C@H]2[C@@H](C1)c1cccc3c1N2CCC3)c1ccc(F)cc1 | 1.92
* O=C(CCCN1CC[C@H]2[C@@H](C1)c1cccc3c1N2CC3)c1ccc(F)cc1 | 2.71
* CCCCN1CCN2c3c(cccc31)[C@@H]1CN(CCCC(=O)c3ccc(F)cc3)CC[C@@H]12 | 2.38
* CN1CCN2c3c(cccc31)[C@@H]1CN(CCCC(=O)c3ccccc3)CC[C@@H]12 | 1.95
* O=C(CCCN1CC[C@H]2[C@@H](C1)c1cccc3c1N2CCO3)c1ccc(F)cc1 | 2.72

Let us move to another entry and its log10 Ki.
Find the measured log10 Ki: item CN1CCN2c3c(cccc31)[C@@H]1CN(CC3CC(c4ccc(F)cc4)=NO3)CC[C@@H]12 (some centres undefined) , target or system UniProt P28335.
3.52

###

Below, each of the compounds is paired with its reported pKi value.
Biological target: 5-hydroxytryptamine receptor 1A (Homo sapiens, UniProt P08908)
Sequence (P08908 whole entry): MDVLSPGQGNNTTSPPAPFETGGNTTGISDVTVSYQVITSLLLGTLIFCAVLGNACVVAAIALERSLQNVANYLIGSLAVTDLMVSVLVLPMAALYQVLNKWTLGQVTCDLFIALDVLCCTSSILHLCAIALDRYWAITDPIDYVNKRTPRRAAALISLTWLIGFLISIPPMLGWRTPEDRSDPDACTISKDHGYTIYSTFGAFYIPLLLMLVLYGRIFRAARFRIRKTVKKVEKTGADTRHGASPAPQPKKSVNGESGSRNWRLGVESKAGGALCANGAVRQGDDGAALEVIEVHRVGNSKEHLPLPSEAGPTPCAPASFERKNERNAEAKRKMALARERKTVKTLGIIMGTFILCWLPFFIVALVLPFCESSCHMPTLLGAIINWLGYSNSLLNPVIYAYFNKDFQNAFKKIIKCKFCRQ
Please report pKi as the negative decimal logarithm of the molar concentration, giving only the number.

Example results:
- O=C(CCCN1CC[C@H]2[C@@H](C1)c1cccc3c1N2CCO3)c1ccc(F)cc1: 5.88
- CN1CCN2c3c(cccc31)[C@@H]1CN(CCCC(=O)c3ccc(F)cc3)CC[C@@H]12.Cc1ccc(S(=O)(=O)O)cc1 [LUMATEPERONE TOSYLATE]: 5.83

Let us move to another entry and its pKi.
Please report the recorded pKi for O=C(CCCN1CC[C@H]2[C@@H](C1)c1cccc3c1N2CCC3)c1ccc(F)cc1 .
6.69

Data provenance is ChEMBL document CHEMBL3232708.
